test: NCI Yeast Anticancer Drug Screen. Data for the mec2-1 strain (AID 157); details: S. cerevisiae mec2-1 strain, at 50.0 µM (retest, dose inferred, filed as 5.0)
The panel holds about 79,000 compounds, 15% with a hit somewhere; the sample as a whole holds those more often. Activity calls are given as the source filed them. Rule as the data show it: active = growth inhibition above about 70%; inactive = the rest.
Classes used: active, inactive

{"molecule": "CCOC(=O)Nc1cc(NC(C)/C(=N/O)c2ccccc2)c([N+](=O)[O-])c(N)n1 (stereo not given)", "assigned.class": "inactive"}
{"molecule": "ON=C1Cc2ccccc2-c2ccccc2C1", "assigned.class": "inactive"}
{"molecule": "FC(F)(F)c1cccc(N2CCN(c3c4c(nc5ccccc35)CCCCC4)CC2)c1", "assigned.class": "active"}
{"molecule": "[Cl-].[La+3].[O-]/N=C(\\c1ccccc1)c1ccccn1.[O-]/N=C(\\c1ccccc1)c1ccccn1.[O-]/N=C(\\c1ccccc1)c1ccccn1", "assigned.class": "inactive"}
{"molecule": "Nc1ccc2c(SCC(=O)Nc3ccccc3-c3ccccc3NC(=O)CSc3c4ccccc4nc4cc(N)ccc34)c3ccccc3nc2c1", "assigned.class": "active"}
{"molecule": "O=C(CCBr)NC(=O)Oc1cccc2ccccc12", "assigned.class": "inactive"}
{"molecule": "O=C(N/N=C/c1ccccc1O)C1Cc2ccccc2C1C(Cl)Cl (stereo not given)", "assigned.class": "active"}
{"molecule": "CC(=O)OCC1OC(Sc2ccc3ccccc3c2)C(OC(C)=O)C(OC(C)=O)C1OC(C)=O (stereo not given)", "assigned.class": "inactive"}
{"molecule": "O=C(CCCl)Nc1cc2ccccc2oc1=O", "assigned.class": "inactive"}
{"molecule": "CSC(=N)N1N=C2/C(=C/c3ccccc3)CCC[C@H]2[C@H]1c1ccccc1", "assigned.class": "inactive"}

---

experiment: NCI Yeast Anticancer Drug Screen. Data for the cln2 rad14 strain (AID 165);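 also: 0% = growth equal to vehicle treated cultures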; conditions: S. cerevisiae cln2 rad14 strain, at 5.0 µM (retest, dose inferred, filed as 0.5), stronger effect = higher value
The panel holds about 79,000 compounds, 15% with a hit somewhere; the sample as a whole holds those more often.

{"molecule": "Clc1ccc([O][In]([O]c2ccc(Cl)cn2)[O]c2ccc(Cl)cn2)nc1", "growth inhibition / %": -4}
{"molecule": "O=C1CCCC2c3ccccc3NC12 (stereo unspecified)", "growth inhibition / %": -51}
{"molecule": "Nc1cc2c(nc3c4ccccc4c(N)cc3[n+]2-c2cccc3ccccc23)c2ccccc12 (tested in a mixture with another compound)", "growth inhibition / %": 31}
{"molecule": "CCC(=O)N(CCC(C)C)c1ccccc1", "growth inhibition / %": 3}
{"molecule": "c1ccc(-c2cc(-c3cc(-c4ccccn4)[nH]n3)n[nH]2)nc1", "growth inhibition / %": -1}
{"molecule": "CN(C)N=Nc1ccc2[nH]c(=O)[nH]c2c1", "growth inhibition / %": 13}

---

Each entry below lists one item and its recorded growth inhibition value.
assay: NCI Yeast Anticancer Drug Screen. Data for the mlh1 rad18 strain (AID 175); details: S. cerevisiae mlh1 rad18 strain growth inhibition; at 50.0 µM; stronger effect = higher value
Compounds without any hit were thinned out: in the full panel of roughly 79,000, 15% have a hit. Activity calls are given as the source filed them. Cut-off read from the data, not from the text of the source: active = growth inhibition above about 70%; inactive = the rest.
parameter.measured: growth inhibition

{"smiles.code": "Cc1cc(C)c(Cc2cc(C(C)(C)C)cc(C)c2O)cc1Cc1cc(C(C)(C)C)cc(C)c1O", "result": "71% (active)"}
{"smiles.code": "CN=C(N)N/N=C(\\C)c1ccc2c(c1)Cc1cc(Cl)ccc1-2", "result": "98.5% (active)"}
{"smiles.code": "COC(=O)/C=C/c1cccc[n+]1[O-]", "result": "17.8% (inactive)"}
{"smiles.code": "CC(=O)Oc1ccc(/C=C/c2ccncc2)cc1", "result": "48.2% (inactive)"}
{"smiles.code": "Fc1ccc(NC(=S)SCc2ccc(Cl)cc2)c(F)c1", "result": "99.5% (active)"}
{"smiles.code": "Cc1cc(C)nc(CCSS(=O)(=O)O)c1", "result": "5.85% (inactive)"}

---

assay: NCI Yeast Anticancer Drug Screen. Data for the rad50 strain (AID 155);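 also: 0% = growth of vehicle-only cultures of the same strain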; conditions: S. cerevisiae rad50 strain growth inhibition; at 50.0 µM (retest, dose inferred, filed as 5.0)
The panel holds about 79,000 compounds, 15% with a hit somewhere; the sample as a whole holds those more often. Calls of active or inactive are those of the source. Cut-off read from the data, not from the text of the source: active = growth inhibition above about 70%; inactive = the rest.
Classes used: 1.0 (active), 0.0 (inactive)

{"compound": "OC(CC(CC(O)(C(F)(F)Cl)C(F)(F)Cl)=NNc1ccccc1)(C(F)(F)Cl)C(F)(F)Cl", "assigned.class": 1.0}
{"compound": "COC1OC(COC(=O)c2ccccc2)CC1F (stereo not drawn)", "assigned.class": 0.0}
{"compound": "COc1ccc(C(c2ccc(OC)c(OC)c2)C(Cl)(Cl)Cl)cc1OC", "assigned.class": 1.0}
{"compound": "Cc1c(N)nc(C2CC(=O)N2CC(N)C(N)=O)nc1C(=O)NC(C(=O)NC(C)C(O)C(C)C(=O)NC(C(=O)NCCc1nc(-c2nc(C(=O)NCCNCC(C)O)cs2)cs1)C(C)O)C(OC1OC(CO)C(O)C(O)C1OC1OC(CO)C(O)C(OC(N)=O)C1O)c1cnc[nH]1 (stereo not drawn)", "assigned.class": 1.0}
{"compound": "Cn1c(=S)c2[nH]c(=S)[nH]c2n(C)c1=O", "assigned.class": 1.0}
{"compound": "COc1ccc(/C=C/c2ccnnc2)c(OC)c1OC", "assigned.class": 0.0}
{"compound": "Cc1ccccc1NC(=S)Nc1ccccc1O", "assigned.class": 1.0}
{"compound": "O=C(O)c1c(Br)c(Br)c(Br)c(Br)c1-c1c2ccc(=O)cc-2oc2cc(O)ccc12", "assigned.class": 1.0}
{"compound": "COC1CCCCC1C(=O)C(C#N)C1CCCCC1C1CCCCC1 (stereo not drawn)", "assigned.class": 0.0}
{"compound": "OC1C2CCC1C1C3C=CC(C3)C21 (stereo not drawn)", "assigned.class": 1.0}
{"compound": "OC(c1ccccc1)(c1ccccc1)c1ccc[cH-]1.OC(c1ccccc1)(c1ccccc1)c1ccc[cH-]1.[Fe+2]", "assigned.class": 0.0}
{"compound": "CC(=O)OC1=C(CC(C)C)C(=O)c2ccccc2C1=O", "assigned.class": 0.0}
{"compound": "CC(=O)N(C1=C(Cl)C(=O)c2ccccc2C1=O)c1ccc([N+](=O)[O-])cc1", "assigned.class": 1.0}
{"compound": "CN(/N=C\\c1ccc(Cl)cc1)C(c1ccc(Cl)cc1)N(C)/N=C/c1ccc(Cl)cc1 (stereo not drawn)", "assigned.class": 1.0}
{"compound": "CCN1/C(=C/C(C)=C/c2sc3ccccc3[n+]2CC)Sc2ccccc21", "assigned.class": 1.0}
{"compound": "O=C(Nc1ccccc1O)/C(Cl)=C/Cl", "assigned.class": 1.0}
{"compound": "ClC(Cl)=C1C(=C(Cl)Cl)C(Cl)(Cl)C1(Cl)Cl", "assigned.class": 1.0}
{"compound": "Cc1ccc(Sc2ccc(C)cc2[N+](=O)[O-])c([N+](=O)[O-])c1", "assigned.class": 0.0}
{"compound": "CN(C)CCCCN1c2ccccc2Sc2ccc(C(=O)c3ccccc3)cc21", "assigned.class": 0.0}
{"compound": "N#CI1OC(C(F)(F)F)(C(F)(F)F)c2ccccc21", "assigned.class": 1.0}
{"compound": "O=[N+]([O-])c1ccc(S(=O)(=O)N/N=C/C=C/c2ccccc2)cc1", "assigned.class": 0.0}
{"compound": "COc1ccc(/C=C/c2ccnc3ccccc23)cc1", "assigned.class": 1.0}
{"compound": "C[Si](C)(C)CC(c1ccccc1)C(O)c1ccccc1 (stereo not drawn)", "assigned.class": 1.0}
{"compound": "C=CCCCCO/N=C/c1c2c(O)c3c(O)c(C)c4c(c3c1O)C(=O)C(C)(O/C=C/C(OC)C(C)C(OC(C)=O)C(C)C(O)C(C)C(O)C(C)/C=C/C=C(\\C)C(=O)N2)O4 (stereo not drawn)", "assigned.class": 1.0}
{"compound": "CC(C)(C)c1ccc(-c2nnc(SCc3ccc(Cl)cc3)n2-c2cccc(C(F)(F)F)c2)cc1", "assigned.class": 0.0}
{"compound": "Oc1ccc(-c2ccccc2)cc1O", "assigned.class": 1.0}
{"compound": "CCc1ccccc1NC(=O)C(=O)CC(=O)c1ccc(Cl)s1", "assigned.class": 0.0}
{"compound": "Nc1nc(-c2cc3cc(Cl)ccc3o2)cs1", "assigned.class": 1.0}
{"compound": "CCCCCCCCCCCCCCOCCS(=O)(=O)O", "assigned.class": 1.0}
{"compound": "NNC(=O)C(=O)N/N=C(/CCC(=O)NCCc1ccccc1)CC(=O)c1ccccc1", "assigned.class": 0.0}
{"compound": "CNC(=O)NN(C)C=O", "assigned.class": 0.0}
{"compound": "COc1ccc(C=O)cc1C[P+](c1ccccc1)(c1ccccc1)c1ccccc1", "assigned.class": 1.0}
{"compound": "Oc1c2c(c(O)c3ncccc13)C1C=CC2CC1 (stereo not drawn)", "assigned.class": 1.0}
{"compound": "Oc1ccc(N(Cc2ccccc2)Cc2ccccc2)cc1", "assigned.class": 0.0}
{"compound": "N=Nc1c(OC(=O)Nc2ccccc2)[nH]c2ccccc12", "assigned.class": 0.0}
{"compound": "O=C(Nc1ccccc1)OC1CCCC1", "assigned.class": 1.0}
{"compound": "NN=C(CC(O)(C(F)(F)Cl)C(F)(F)Cl)CC(O)(C(F)(F)Cl)C(F)(F)Cl", "assigned.class": 1.0}
{"compound": "Cc1ccc(S(=O)(=O)OCCc2ccc(Cl)cc2)cc1", "assigned.class": 0.0}
{"compound": "O=C(Oc1ccc(/C=C/[n+]2ccccc2)c(OC(=O)c2ccccc2)c1)c1ccccc1", "assigned.class": 1.0}
{"compound": "CCCCC1=NCCc2c1cc1c([nH]c3ccccc31)c2C", "assigned.class": 0.0}
{"compound": "Cc1ccc(S(=O)(=O)Oc2c([N+](=O)[O-])cc(C)cc2[N+](=O)[O-])cc1", "assigned.class": 0.0}
{"compound": "COc1nc(NC2OCC(O)C(O)C2O)c(Cl)c(=O)n1C (stereo not drawn)", "assigned.class": 0.0}
{"compound": "COC(=O)C(=O)/C=C(/O)c1ccc(OC)cc1", "assigned.class": 0.0}
